A set of molecules tested on Staphylococcus aureus 209P, with measured MIC:
Could you write the number and then its unit?

Would you please look over these solved cases?
NC[C@H]1O[C@H](O[C@H]2[C@H](O)[C@@H](O[C@H]3O[C@H](CO)[C@@H](O)[C@H](N)[C@H]3O)[C@H](N)C[C@@H]2N)CC[C@@H]1O [DKA, 2',3'-dideoxykanamycin A] ... 1.56 µg/mL
NC[C@H](O)C(=O)N[C@@H]1C[C@H](N)[C@@H](O[C@@H]2CC[C@H](O)[C@@H](CN)O2)[C@H](O)[C@H]1O[C@H]1O[C@H](CO)[C@@H](O)[C@H](N)[C@H]1O [ISDK] ... 0.2 µg/mL
NCC[C@H](O)C(=O)N[C@@H]1C[C@H](N)[C@@H](O[C@H]2O[C@H](CN)[C@@H](O)[C@H](O)[C@H]2O)[C@H](O)[C@H]1O[C@H]1O[C@H](CO)[C@@H](O)[C@H](N)[C@H]1O [Amikacin, reference compound] ... 0.78 µg/mL

Please turn your attention to the following entry.
Exam item: Notebook: pull reported MIC for Staphylococcus aureus 209P, entry NCC[C@H](O)C(=O)N[C@@H]1C[C@H](N)[C@@H](O[C@@H]2CC[C@H](O)[C@@H](CN)O2)[C@H](O)[C@H]1O[C@H]1O[C@H](CO)[C@@H](O)[C@H](N)[C@H]1O [AHDK]
Marked response: 0.1 µg/mL
